assay: Cytotoxicity against mouse 3T3-L1 cells assessed as cell viability at 25 ug/ml measured after 24 to 72 hrs by MTT assay relative to control; type: toxicity, cell-based; details: at 25 µg/mL, time 24-72 hrs, read-out: Activity
value.kind: viability at 25 ug/ml

# viability at 25 ug/ml of "COc1cc2c(cc1OC)C[N+](Cc1cn(-c3ccc(OCc4ccccc4)c(F)c3)nn1)(Cc1cn(-c3ccc(OCc4ccccc4)c(F)c3)nn1)CC2" = > 85%

----------
experiment: Cytotoxicity against African green monkey Vero cells assessed as inhibition of cell growth at 50 ug/ml; assay type: toxicity, cell-based; details: chlorocebus sabaeus, Vero cells, at 50 µg/mL
value.kind: inhibition at 50 ug/ml (%)
Give bare numbers, in %.

Looking up "COc1cc2c(cc1OC)C[N+](Cc1cn(-c3ccc(C(C)(C)C)cc3)nn1)(Cc1cn(-c3ccc(C(C)(C)C)cc3)nn1)CC2" , I found its inhibition at 50 ug/ml recorded as 89
